As shown below, each of these binders has a reported TL1A Binding Level (Early) value.
# system tested: T1, human TL1A extracellular domain with N-terminal HIS and FLAG tag (human, UniProt O95150 72-251)
# T1 construct: the whole entry is named; also called TNFSF15
# T1 sequence: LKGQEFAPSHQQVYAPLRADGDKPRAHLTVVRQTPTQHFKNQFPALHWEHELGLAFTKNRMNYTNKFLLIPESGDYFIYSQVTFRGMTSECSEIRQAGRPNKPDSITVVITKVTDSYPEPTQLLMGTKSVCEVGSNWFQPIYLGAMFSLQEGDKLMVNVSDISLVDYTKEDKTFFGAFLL
# method description: SPR Run 8, antibody on Protein A, TL1A 5 ug/mL, timepoint 44
value type: TL1A Binding Level (Early) (RU)

[
  {
    "binder": "320-586 (antibody, human IgG1, name in Kabat numbering, V domains shown, full-length human IgG1, lambda) VH: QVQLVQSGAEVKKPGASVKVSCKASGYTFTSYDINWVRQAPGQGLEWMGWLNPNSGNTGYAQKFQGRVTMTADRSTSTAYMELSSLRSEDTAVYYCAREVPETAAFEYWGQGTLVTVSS VL: QSVLTQPPSVSGAPGQRVTISCTSSSSDIGAGLGVLWYQQLPGTAPKLLIEGYYNRPSGVPDRFSGSKSGTSASLTITGLLPEDEGDYYCQSWDGTLSALFGGGTKLTVLG",
    "readout units": "RU",
    "measured": 108
  },
  {
    "binder": "320-591 (antibody, human IgG1, V domains shown, full-length human IgG1, lambda) VH: QVQLVQSGAEVKKPGASVKVSCKASGYTFTSYDINWVRQAPGQGLEWMGWLNPNSGYTGYAQKFQGRVTMTADRSTSTAYMELSSLRSEDTAVYYCAREVPETAAFEYWGQGTLVTVSS VL: QSVLTQPPSVSGAPGQRVTISCTSSSSDIGAGLGVLWYQQLPGTAPKLLIEGYYNRPSGVPDRFSGSKSGTSASLTITGLLPEDEGDYYCQSYDGTLSALFGGGTKLTVLG",
    "readout units": "RU",
    "measured": 132
  },
  {
    "binder": "320-593 (antibody, human IgG1, name in Kabat numbering, V domains shown, full-length human IgG1, lambda) VH: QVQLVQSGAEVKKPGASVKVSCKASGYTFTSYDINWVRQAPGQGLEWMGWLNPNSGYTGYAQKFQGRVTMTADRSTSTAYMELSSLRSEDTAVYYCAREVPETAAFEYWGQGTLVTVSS VL: QSVLTQPPSVSGAPGQRVTISCTSSSSDIGAGSGVHWYQQLPGTAPKLLIEGYYNRPSGVPDRFSGSKSGTSASLTITGLLPEDEGDYYCQSWDGTLSALFGGGTKLTVLG",
    "readout units": "RU",
    "measured": 126
  },
  {
    "binder": "320-595 (antibody, human IgG1, name in Kabat numbering, V domains shown, full-length human IgG1, lambda) VH: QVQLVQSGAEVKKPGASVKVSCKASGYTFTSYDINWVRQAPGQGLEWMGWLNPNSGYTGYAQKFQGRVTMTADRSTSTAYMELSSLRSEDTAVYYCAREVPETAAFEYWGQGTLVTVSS VL: QSVLTQPPSVSGAPGQRVTISCTSSSSDIGAGLGVLWYQQLPGTAPKLLIEGYYNRPSGVPDRFSGSKSGTSASLTITGLLPEDEGDYYCQSWDGTLSALFGGGTKLTVLG",
    "readout units": "RU",
    "measured": 129
  }
]
